Would you kindly list EC50 for each of these molecules?
# assayed-target: P-gp 170 (Homo sapiens)
# Sequence (P08183 whole entry): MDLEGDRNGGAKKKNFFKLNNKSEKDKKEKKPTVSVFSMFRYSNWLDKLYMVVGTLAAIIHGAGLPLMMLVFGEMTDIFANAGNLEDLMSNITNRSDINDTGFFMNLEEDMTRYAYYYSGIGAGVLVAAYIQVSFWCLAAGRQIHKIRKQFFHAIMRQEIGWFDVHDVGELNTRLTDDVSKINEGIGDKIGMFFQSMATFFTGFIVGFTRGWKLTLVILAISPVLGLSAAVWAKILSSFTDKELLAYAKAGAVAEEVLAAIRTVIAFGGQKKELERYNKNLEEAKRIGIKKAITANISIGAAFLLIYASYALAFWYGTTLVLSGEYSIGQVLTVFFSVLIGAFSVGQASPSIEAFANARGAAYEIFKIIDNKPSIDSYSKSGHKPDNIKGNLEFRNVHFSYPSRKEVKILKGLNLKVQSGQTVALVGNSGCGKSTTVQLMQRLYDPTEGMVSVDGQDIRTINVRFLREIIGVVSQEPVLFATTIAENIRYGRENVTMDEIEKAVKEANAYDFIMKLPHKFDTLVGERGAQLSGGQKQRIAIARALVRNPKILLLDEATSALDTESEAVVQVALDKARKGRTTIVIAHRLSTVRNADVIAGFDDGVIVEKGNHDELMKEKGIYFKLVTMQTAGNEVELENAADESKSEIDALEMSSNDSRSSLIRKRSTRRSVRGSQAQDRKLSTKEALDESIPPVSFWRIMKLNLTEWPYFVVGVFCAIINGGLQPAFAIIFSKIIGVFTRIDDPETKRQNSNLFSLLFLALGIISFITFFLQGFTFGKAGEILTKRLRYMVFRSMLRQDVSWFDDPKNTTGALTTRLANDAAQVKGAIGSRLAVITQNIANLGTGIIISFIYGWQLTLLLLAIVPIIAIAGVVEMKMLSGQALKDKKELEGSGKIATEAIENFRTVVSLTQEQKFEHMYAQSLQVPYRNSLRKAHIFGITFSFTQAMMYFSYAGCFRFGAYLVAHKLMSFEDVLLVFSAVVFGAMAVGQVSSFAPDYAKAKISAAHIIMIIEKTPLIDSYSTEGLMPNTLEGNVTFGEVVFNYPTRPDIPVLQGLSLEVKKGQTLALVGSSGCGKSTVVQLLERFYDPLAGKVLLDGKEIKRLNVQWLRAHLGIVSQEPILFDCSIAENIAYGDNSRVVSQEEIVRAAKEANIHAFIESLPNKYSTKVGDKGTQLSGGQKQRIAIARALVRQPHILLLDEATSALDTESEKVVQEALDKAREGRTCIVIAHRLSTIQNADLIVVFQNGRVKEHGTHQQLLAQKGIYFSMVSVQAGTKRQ
# method-summary: Vinblastine uptake by the KB/MDR cells (anti-P-gp efflux activity)
Quick note: give the figure in nM, leave out the unit.

Query block: Which EC50 is listed for CCCOc1cc2oc(-c3ccccc3)cc(=O)c2c(OC)c1OCCC [Compound 23, 5-Methoxy-6,7-dipropoxyflavone] ?
Result block: 900

Query block: Which EC50 is listed for CCOc1c(O)cc2oc(-c3ccccc3)cc(=O)c2c1O [Compound 32, 6-Ethoxy-5,7-dihydroxyflavone] ?
Result block: 2300

Query block: Which EC50 is listed for CCCOc1c(OC)cc2oc(-c3ccccc3)cc(=O)c2c1O [Compound 21, 5-Hydroxy-7-methoxy-6-propoxyflavone] ?
Result block: 1200

Query block: Which EC50 is listed for CCCOc1c(O)cc2oc(-c3ccccc3)cc(=O)c2c1O [Compound 17, 5,7-Dihydroxy-6-propoxyflavone] ?
Result block: 2000

* * *

# assayed-target: P-gp 170 (human P-glycoprotein) (Homo sapiens, UniProt P08183)
# Sequence (P08183 whole entry): as above
# method-summary: in vitro
# condition-notes: human
Would you kindly list EC50 at 60 min for each of these compounds?
Your answer should be a number followed by the unit of measure.

Query block: For P-gp 170 (human P-glycoprotein) (Homo sapiens, UniProt P08183), provide EC50 at 60 min of O=c1cc(-c2ccccc2)oc2c(Br)c(O)c(O)c(O)c12 [Compound 25, 8-Bromo-5,6,7-trihydroxyflavone] please.
Result block: 15 µM

Query block: For P-gp 170 (human P-glycoprotein) (Homo sapiens, UniProt P08183), provide EC50 at 60 min of CCCOc1cc2oc(-c3ccccc3)cc(=O)c2c(O)c1OCCC [Compound 18, 5-Hydroxy-6,7-dipropoxyflavone] please.
Result block: 1.4 µM

* * *

Would you kindly list pEC50 for each of these compounds?
# assayed-target: P-gp 170 (Homo sapiens)
# method-summary: Vinblastine uptake by the KB/MDR cells (anti-P-gp efflux activity)
API: returns pEC50 as number; meaning -log10 of concentration in mol/L.

Query block: Which pEC50 is listed for CCOc1cc2oc(-c3ccccc3)cc(=O)c2c(O)c1OCC [Compound 33, 6,7-Diethoxy-5-hydroxyflavone] ?
Result block: 5.74

Query block: Which pEC50 is listed for COc1cc2oc(-c3ccccc3)cc(=O)c2c(OC)c1OC [Compound 6, 5,6,7-Trimethoxyflavone] ?
Result block: 5.34

Query block: Which pEC50 is listed for COc1cc2oc(-c3ccccc3)cc(=O)c2c(O)c1OC [Compound 8, 5-Hydroxy-6,7-dimethoxyflavone] ?
Result block: 5.26

* * *

Would you kindly list melting point for each of these compounds?

Query block: Which melting point is listed for "CC(=O)Oc1c(OCc2ccccc2)cc2oc(-c3ccccc3)cc(=O)c2c1OC(C)=O" ?
Result block: 174 to 175 °C

Query block: Which melting point is listed for CC(=O)Oc1c(O)cc2oc(-c3ccccc3)cc(=O)c2c1O [Compound 2, 6-Acetoxy-5,7-dihydroxyflavone] ?
Result block: 205 to 207 °C

Query block: Which melting point is listed for "COc1cc2oc(-c3ccccc3)cc(=O)c2c(OC)c1OC(C)=O" ?
Result block: 208 to 210 °C

Query block: Which melting point is listed for CCCOc1c(O)cc2oc(-c3ccccc3)cc(=O)c2c1O [Compound 17, 5,7-Dihydroxy-6-propoxyflavone] ?
Result block: 162 to 163 °C

Query block: Which melting point is listed for "CCOc1cc2oc(-c3ccccc3)cc(=O)c2c(OC)c1OCC" ?
Result block: 126 to 128 °C

Query block: Which melting point is listed for CCOc1c(OC)cc2oc(-c3ccccc3)cc(=O)c2c1O [Compound 38, 6-Ethoxy-5-hydroxy-7-methoxyflavone] ?
Result block: 133 to 134 °C

Query block: Which melting point is listed for "CCCCOc1cc2oc(-c3ccccc3)cc(=O)c2c(OC)c1OCCCC" ?
Result block: 103 to 105 °C

Query block: Which melting point is listed for CCCCOc1cc2oc(-c3ccccc3)cc(=O)c2c(O)c1OCCCC [Compound 45, 6,7-Dibutoxy-5-hydroxyflavone] ?
Result block: 116 to 117 °C

Query block: Which melting point is listed for CC(=O)Oc1c(OC(C)=O)c(O)c2c(=O)cc(-c3ccccc3)oc2c1Br [Compound 24, 6,7-Diacetoxy-8-bromo-5-hydroxyflavone] ?
Result block: 244 to 246 °C

Query block: Which melting point is listed for "CC(=O)Oc1cc2oc(-c3ccccc3)cc(=O)c2c(OCc2ccccc2)c1OC(C)=O" ?
Result block: 175 to 177 °C

All figures here come from patent US7875650B2.
